tested on: CCRF-CEM leukemia; test: NCI tumour cell line growth inhibition, 48 h
Field: TGI. Provide a value for each of the compounds that follow.

Using the record for "CC1(C)[C@@H](OC(N)=O)C=C[C@]2(CO)[C@H]3CC[C@]4(C)[C@@H](c5ccc(=O)oc5)[C@@H](Cl)C[C@]4(O)C3=CC[C@@H]12" , state its measured TGI.
0.0131 µM

Using the record for CC1=C(/C=C/C(C)=C/C=C/C(C)=C/C=C/C=C(C)/C=C/C=C(C)/C=C/C2=C(C)C(=O)C(O)CC2(C)C)C(C)(C)CC(O)C1=O (centres undefined) , state its measured TGI.
> 100 µM

Using the record for "Cn1cc(C2=C(c3cn(C)c4cc(N)ccc34)C(=O)NC2=O)c2ccccc21" , state its measured TGI.
> 11.2 µM

Using the record for COc1ccc(N2C(=O)C3c4[nH]c5ccccc5c4C4CCCCCCC4C3C2=O)cc1 (centres undefined) , state its measured TGI.
21.5 µM

Using the record for COC(=O)C1CC23C=CCN4CC(C2C)C2(c5ccccc5NC12)C43 (centres undefined) , state its measured TGI.
> 100 µM

Using the record for COc1cccc(C23CCCC(C2)N(C)CC3OC(=O)c2ccccc2)c1OC (centres undefined) , state its measured TGI.
25 µM

Using the record for "O=c1[nH]c2cc([N+](=O)[O-])c(Nc3c4ccccc4nc4ccccc34)c([N+](=O)[O-])c2[nH]1" , state its measured TGI.
24.3 µM

Using the record for "CC(=O)NC(=O)NC1=NCCC(=O)N1CCc1c[nH]c2ccccc12" , state its measured TGI.
> 100 µM

Using the record for C=CCc1ccccc1C1CC2(C(=O)OC)OC1C(C(=O)OC)=C2C(=O)OC (centres undefined) , state its measured TGI.
> 10 µM

Using the record for CC1(O)CCC2(C)C(=O)C1(C)CCC21OCCO1 (centres undefined) , state its measured TGI.
> 100 µM

Using the record for "Cn1c2ccc(C3=NCCN3)cc2c2cc(C3=NCCN3)ccc21" , state its measured TGI.
0.0344 µM

Using the record for CCN(CC)CCCC(C)Nc1cc(-c2ccccc2)nc2cc(OC)ccc12 (centres undefined) , state its measured TGI.
11.4 µM

Using the record for "CCOC(=O)C1=C(Nc2ccc(Cl)c(Cl)c2)OC/C1=N\NC(=O)Cc1ccccc1" , state its measured TGI.
> 100 µM

Using the record for "Cc1cc2nc(-c3c(N)ncc(C#N)c3-c3ccc(Cl)cc3)[nH]c2cc1C" , state its measured TGI.
> 100 µM

Using the record for "CC[C@]1(O)C[C@@H]2CN(CCc3c([nH]c4ccccc34)[C@@](C(=O)OC)(c3cc4c(cc3OC)N(C)[C@H]3[C@@](O)(C(N)=O)[C@H](O)[C@]5(CC)[C@@H]6C[C@@H]6CN6CC[C@]43[C@@H]65)C2)C1" , state its measured TGI.
> 28.8 µM

Using the record for Cc1cn(CCOCCOC(=O)NC(CCCNC(N)=O)C(=O)O)c(=O)[nH]c1=O (centres undefined) , state its measured TGI.
> 100 µM

Using the record for "CN(C)CCCc1c2ccccc2nc2ccc(Cl)cc12" , state its measured TGI.
35.8 µM

Using the record for "O=C(NCCCCCCO)c1cccc2cc3ccccc3nc12" , state its measured TGI.
> 100 µM

Using the record for "COc1cc(/C=C/c2ccc(OC)c(OC)c2OC)cc(OC)c1OC" , state its measured TGI.
85.8 µM

Using the record for "CN1c2ccccc2S(=O)(=O)n2c(CCc3ccccc3)nnc21" , state its measured TGI.
> 100 µM

Using the record for "C=CCCCCn1c2ccccc2c2c(C)c3cnccc3c(C)c21" , state its measured TGI.
14.3 µM

Using the record for "CCCCCCNC(=O)n1cc(F)c(=O)[nH]c1=O" , state its measured TGI.
26.7 µM

Using the record for "Clc1ccc2c(c1)[nH]c1c2nc2sccn21" , state its measured TGI.
> 100 µM

Using the record for "C/C=C(/C)c1cnc(CC(C)C)c(=O)[nH]1" , state its measured TGI.
> 100 µM

Using the record for "Cn1ccc2c(c1=O)C(=O)OC2(C)C" , state its measured TGI.
> 100 µM

Using the record for "NNS(=O)(=O)c1cc(C(=O)O)cc(C(=O)O)c1" , state its measured TGI.
> 100 µM

Using the record for "COc1cc2c(c(OC)c1OC)-c1ccc(O)c(=O)cc1[C@@H](NC(C)=O)CC2" , state its measured TGI.
> 100 µM

Using the record for "CNC(=O)N(CCC#N)CCCN(C(=O)N(C)C)c1ccccc1" , state its measured TGI.
> 100 µM

Using the record for "CCN1CCCn2c(=O)[nH]c3cc(Br)cc1c32" , state its measured TGI.
> 100 µM

###

test system: NCI-H460 lung; test: NCI tumour cell line growth inhibition, 48 h
Given measured TGI, output Met if it is greater than or equal to 40 µM and Not met if not.

Please indicate if the recorded TGI for "O=NN1CCCS1(=O)=O" meets or exceeds 40 µM.
Met

Please indicate if the recorded TGI for "CCN(CC)/[N+]([O-])=N/O" meets or exceeds 40 µM.
Met

Please indicate if the recorded TGI for "COC1(OC)C=CC(=O)C=C1" meets or exceeds 40 µM.
Not met

Please indicate if the recorded TGI for "CC(=O)NC(=O)NC1=NCCC(=O)N1CCc1c[nH]c2ccccc12" meets or exceeds 40 µM.
Met

Please indicate if the recorded TGI for "CCN1CCCn2c(=O)[nH]c3cc(Br)cc1c32" meets or exceeds 40 µM.
Met

Please indicate if the recorded TGI for "CCC[CH2][Sn]1([CH2]CCC)[O]C(=O)c2ccc(N)cc2[O]1" meets or exceeds 40 µM.
Not met

Please indicate if the recorded TGI for "COc1cc2c(cc1O)CCN(C)[C@H]2Cc1ccc(Oc2c(O)c(OC)cc3c2C[C@H]2c4c(c(OC)c(OC)c(OC)c4-3)CCN2C)cc1" meets or exceeds 40 µM.
Not met

Please indicate if the recorded TGI for COC(=O)C(CC(=O)c1c[nH]c2ccccc12)c1c[nH]c2ccccc12 (configuration not stated) meets or exceeds 40 µM.
Not met

Please indicate if the recorded TGI for COc1cc(/C=C2\CC3C4CC=C5C[C@@H](O)CC[C@]5(C)C4CC[C@]3(C)C2=O)ccc1OCCCn1ccnc1 (some centres not stated) meets or exceeds 40 µM.
Met

Please indicate if the recorded TGI for "COc1ccc([C@@H](O)c2cc(-c3ncnc4cc(N5CCOCC5)ccc34)c(F)cc2Cl)nn1" meets or exceeds 40 µM.
Met

Please indicate if the recorded TGI for "NNC(=O)Cn1ccnn1" meets or exceeds 40 µM.
Met

Please indicate if the recorded TGI for COC(=O)C1CC23C=CCN4CC(C2C)C2(c5ccccc5NC12)C43 (configuration not stated) meets or exceeds 40 µM.
Met

Please indicate if the recorded TGI for "Cc1c(C#N)c(=N)oc2ccccc12" meets or exceeds 40 µM.
Met

Please indicate if the recorded TGI for "C[C@]12CC[C@@H](OC(=O)N(CCCl)N=O)C[C@@H]1CC[C@@H]1[C@@H]2CC[C@]2(C)C(=O)CC[C@@H]12" meets or exceeds 40 µM.
Not met

Please indicate if the recorded TGI for "O=C(O)Cc1ccccc1CCc1ccccc1Cl" meets or exceeds 40 µM.
Met

###

tested on: SK-MEL-28 melanoma; assay: NCI tumour cell line growth inhibition, 48 h
Property name: TGI

Using the record for Clc1nc2c(C#Cc3ccccc3)ncnc2n1C1CCCCO1 (stereo not drawn) , state its measured TGI.
91.3 µM

Using the record for C=CCc1ccccc1C1CC2(C(=O)OC)OC1C(C(=O)OC)=C2C(=O)OC (stereo not drawn) , state its measured TGI.
> 10 µM

Using the record for "CC[C@]1(O)C[C@@H]2CN(CCc3c([nH]c4ccccc34)[C@@](C(=O)OC)(c3cc4c(cc3OC)N(C)[C@H]3[C@@](O)(C(N)=O)[C@H](O)[C@]5(CC)[C@@H]6C[C@@H]6CN6CC[C@]43[C@@H]65)C2)C1" , state its measured TGI.
> 33.3 µM

Using the record for CC1=NOC(=O)C1N=Nc1ccc(Br)c(C)c1 (stereo not drawn) , state its measured TGI.
48.7 µM

Using the record for C=CC(OC(C)=O)c1ccc(OC(C)=O)cc1 (stereo not drawn) , state its measured TGI.
28.6 µM

Using the record for "O=C(Nc1ccc(Br)cc1)Nc1nn(C(=O)Nc2ccc(Br)cc2)c2ccccc12" , state its measured TGI.
> 100 µM

Using the record for "O=C(O)CCSC1=NCCN1" , state its measured TGI.
> 100 µM

Using the record for "Cc1c(Cl)cccc1NC(=O)/C(Cl)=C(\Cl)C(=O)O" , state its measured TGI.
35.4 µM

Using the record for "COc1c(Sc2ccccc2)cc(Sc2ccccc2)c2cccnc12" , state its measured TGI.
> 100 µM

Using the record for "O=[N+]([O-])c1cc(F)ccc1Sc1ccccc1" , state its measured TGI.
> 10 µM

Using the record for Nc1ccc(C(=O)CC2(O)C(=O)Nc3c(Cl)cc(Cl)cc32)cc1 (stereo not drawn) , state its measured TGI.
> 100 µM

Using the record for "Clc1ccc(-c2c(C3=NCCN3)nnn2-c2ccccc2)cc1" , state its measured TGI.
> 100 µM

Using the record for O=C1/C(=C/c2ccc(O)cc2)CCC1CNc1ccccc1 (stereo not drawn) , state its measured TGI.
29.9 µM

Using the record for "CC(=O)c1cc(-c2ccccc2N)n(-c2ccc3c(c2)OCO3)c1C" , state its measured TGI.
> 73.9 µM

Using the record for "Nc1nc(N)nc(CC(=O)O)n1" , state its measured TGI.
> 100 µM

Using the record for "COC(=O)c1cc(C)ccc1/C=C1\Cc2c(C)cc(C)cc2C1=O" , state its measured TGI.
> 100 µM

Using the record for "COc1cc(/C=C/c2ccc(OC)c(OC)c2OC)cc(OC)c1OC" , state its measured TGI.
37.7 µM

Using the record for "Clc1ccc2ns[s+]c2c1" , state its measured TGI.
> 100 µM
